- System: NCI-H2087
- method: relative viability (nuclei count vs DMSO), 5 days (fraction); higher = more cells survive
- condition-parameters: first compound 20 µM
measured-endpoint: relative viability
Hey, just send me the number, nothing else.

compound	relative viability
COCC1(CO)C(=O)C2CCN1CC2 (configuration not stated) [PRIMA-1MET] + CC(=O)c1c(C)c2cnc(Nc3ccc(N4CCNCC4)cn3)nc2n(C2CCCC2)c1=O [Palbociclib] (partner 0.5 µM)	0.13
COCC1(CO)C(=O)C2CCN1CC2 (configuration not stated) [PRIMA-1MET] + NC(=O)Nc1cc(-c2cccc(F)c2)sc1C(=O)N[C@H]1CCCNC1 [AZD7762] (partner 0.2 µM)	0.938
COCC1(CO)C(=O)C2CCN1CC2 (configuration not stated) [PRIMA-1MET] + CCNC(=O)c1noc(-c2cc(C(C)C)c(O)cc2O)c1-c1ccc(CN2CCOCC2)cc1 [Luminespib] (partner 0.01 µM)	0.0951
COCC1(CO)C(=O)C2CCN1CC2 (configuration not stated) [PRIMA-1MET] + Cc1nc(Nc2ncc(C(=O)Nc3c(C)cccc3Cl)s2)cc(N2CCN(CCO)CC2)n1 [Dasatinib] (partner 0.075 µM)	0.289

**Query** Which relative viability is reported for this compound? COCC1(CO)C(=O)C2CCN1CC2 (configuration not stated) [PRIMA-1MET] + CS(=O)(=O)N1CCN(Cc2cc3nc(-c4cccc5[nH]ncc45)nc(N4CCOCC4)c3s2)CC1 [Pictilisib] (partner 1 µM)
**Result** 0.659

**Query** Query (compound): COCC1(CO)C(=O)C2CCN1CC2 (configuration not stated) [PRIMA-1MET] + CS(=O)(=O)CCNCc1ccc(-c2ccc3ncnc(Nc4ccc(OCc5cccc(F)c5)c(Cl)c4)c3c2)o1 [Lapatinib] (partner 2 µM) ; field requested: relative viability
**Result** 0.919

**Query** Value lookup for relative viability; key = COCC1(CO)C(=O)C2CCN1CC2 (configuration not stated) [PRIMA-1MET] + Cc1cc(Nc2cc(N3CCN(C)CC3)nc(Sc3ccc(NC(=O)C4CC4)cc3)n2)n[nH]1 [Tozasertib] (partner 0.1 µM)
**Result** 0.126

###

Listed here are compounds together with their documented relative viability.
- System: SK-MES-1
- method: relative viability (nuclei count vs DMSO), 5 days (fraction); higher = more cells survive
- condition-parameters: first compound 0.03162 µM
Respond numerically, and do not add a unit to the figure.

compound	result
O=c1cc(N2CCOCC2)oc2c(-c3cccc4c3sc3ccccc34)cccc12 + COc1cc2c(Oc3ccc(NC(=O)C4(C(=O)Nc5ccc(F)cc5)CC4)cc3F)ccnc2cc1OCCCN1CCOCC1 [Foretinib] (partner 0.25 µM)	0.771
CCN(CC)CCCCNc1ncc2cc(-c3cc(OC)cc(OC)c3)c(NC(=O)NC(C)(C)C)nc2n1 + Cc1nc(Nc2ncc(C(=O)Nc3c(C)cccc3Cl)s2)cc(N2CCN(CCO)CC2)n1 [Dasatinib] (partner 0.075 µM)	0.375
O=c1cc(N2CCOCC2)oc2c(-c3cccc4c3sc3ccccc34)cccc12 + COc1cccc2cc(-c3nc([C@H]4CC[C@H](C(=O)O)CC4)n4ncnc(N)c34)[nH]c12 [OSI-027] (partner 0.5 µM)	0.685

Next:
**Query** Request - read-out relative viability | tested on SK-MES-1 | compound CCN(CC)CCCCNc1ncc2cc(-c3cc(OC)cc(OC)c3)c(NC(=O)NC(C)(C)C)nc2n1 + Nc1nc2[nH]cc(CCc3ccc(C(=O)N[C@@H](CCC(=O)O)C(=O)O)cc3)c2c(=O)[nH]1 [Pemetrexed] (partner 0.2 µM)
**Result** 0.94

###

- System: CAL-12T
- method: relative viability (nuclei count vs DMSO), 5 days (fraction); higher = more cells survive
- condition-parameters: first compound 6.325 µM
measured-endpoint: relative viability

compound	relative viability
COCC1(CO)C(=O)C2CCN1CC2 (centres undefined) [PRIMA-1MET] + O=C(c1cc(Cc2n[nH]c(=O)c3ccccc23)ccc1F)N1CCN(C(=O)C2CC2)CC1 [Olaparib] (partner 8 µM)	0.445
COCC1(CO)C(=O)C2CCN1CC2 (centres undefined) [PRIMA-1MET] + CC(=O)Nc1cccc(-n2c(=O)n(C3CC3)c(=O)c3c(Nc4ccc(I)cc4F)n(C)c(=O)c(C)c32)c1 [Trametinib] (partner 0.02 µM)	0.235
COCC1(CO)C(=O)C2CCN1CC2 (centres undefined) [PRIMA-1MET] + CCNC(=O)c1noc(-c2cc(C(C)C)c(O)cc2O)c1-c1ccc(CN2CCOCC2)cc1 [Luminespib] (partner 0.01 µM)	0.918

From here, focus on the item given below.
**Query** Given COCC1(CO)C(=O)C2CCN1CC2 (centres undefined) [PRIMA-1MET] + CS(=O)(=O)CCNCc1ccc(-c2ccc3ncnc(Nc4ccc(OCc5cccc(F)c5)c(Cl)c4)c3c2)o1 [Lapatinib] (partner 2 µM) , state its recorded relative viability.
**Result** 0.677

###

- Tested on: NCI-H520
- method: relative viability (nuclei count vs DMSO), 5 days (fraction); higher = more cells survive
- condition-parameters: first compound 0.03162 µM
Listed compounds paired with reported relative viability
No unit in the answer, only the number.

compound	target-desc	relative viability
O=c1cc(N2CCOCC2)oc2c(-c3cccc4c3sc3ccccc34)cccc12 + CC1(C)CCC(c2ccc(Cl)cc2)=C(CN2CCN(c3ccc(C(=O)NS(=O)(=O)c4ccc(N[C@H](CCN5CCOCC5)CSc5ccccc5)c(S(=O)(=O)C(F)(F)F)c4)cc3)CC2)C1 [Navitoclax] (partner 0.5 µM)	NCI-H520	1.14

Field: next compound
**Query** Sample CCN(CC)CCCCNc1ncc2cc(-c3cc(OC)cc(OC)c3)c(NC(=O)NC(C)(C)C)nc2n1 + O=C(CCCCCCC(=O)Nc1ccccc1)NO [Vorinostat] (partner 1 µM) — what was its relative viability?
**Result** 0.731

###

Reported values of relative viability for individual entries
- Test system: HOP-62
- method: relative viability (nuclei count vs DMSO), 5 days (fraction); higher = more cells survive
- condition-parameters: first compound 0.253 µM
Reply briefly: the number, and no unit.

Below, each entry is followed by its recorded relative viability result.
molecule	measured-endpoint	result
COc1nc(C)cnc1NS(=O)(=O)c1cccnc1-c1ccc(-c2nnco2)cc1 [Zibotentan] + C[C@@H](Oc1cc(-c2cnn(C3CCNCC3)c2)cnc1N)c1c(Cl)ccc(F)c1Cl [Crizotinib] (partner 1 µM)	relative viability	0.862
COc1nc(C)cnc1NS(=O)(=O)c1cccnc1-c1ccc(-c2nnco2)cc1 [Zibotentan] + C[C@]1(O)C[C@@H](c2nc(-c3ccc4ccc(-c5ccccc5)nc4c3)c3c(N)nccn32)C1 [Linsitinib] (partner 1 µM)	relative viability	1.06
O=c1cc(-c2cccc3c2Sc2ccccc2S3)oc(N2CCOCC2)c1 + CS(=O)(=O)CCNCc1ccc(-c2ccc3ncnc(Nc4ccc(OCc5cccc(F)c5)c(Cl)c4)c3c2)o1 [Lapatinib] (partner 2 µM)	relative viability	1.08
O=c1cc(-c2cccc3c2Sc2ccccc2S3)oc(N2CCOCC2)c1 + Cc1nc(Nc2ncc(C(=O)Nc3c(C)cccc3Cl)s2)cc(N2CCN(CCO)CC2)n1 [Dasatinib] (partner 0.075 µM)	relative viability	0.835

// next item, relative viability requested
**Query** Fill in the blank: the reported relative viability of O=c1cc(-c2cccc3c2Sc2ccccc2S3)oc(N2CCOCC2)c1 + CC1(C)CCC(c2ccc(Cl)cc2)=C(CN2CCN(c3ccc(C(=O)NS(=O)(=O)c4ccc(N[C@H](CCN5CCOCC5)CSc5ccccc5)c(S(=O)(=O)C(F)(F)F)c4)cc3)CC2)C1 [Navitoclax] (partner 0.5 µM) is ____.
**Result** 1.43

###

- System: LK-2
- method: relative viability (nuclei count vs DMSO), 5 days (fraction); higher = more cells survive
- condition-parameters: first compound 6.325 µM
Threshold check on relative viability: strictly below 0.2 is TRUE; on or above 0.2 is FALSE.

compound	target-desc	label
COCC1(CO)C(=O)C2CCN1CC2 (configuration not stated) [PRIMA-1MET] + CC(=O)Nc1cccc(-n2c(=O)n(C3CC3)c(=O)c3c(Nc4ccc(I)cc4F)n(C)c(=O)c(C)c32)c1 [Trametinib] (partner 0.02 µM)	LK-2	FALSE

**Query** Does the reported relative viability of the following compound sit strictly below 0.2? COCC1(CO)C(=O)C2CCN1CC2 (configuration not stated) [PRIMA-1MET] + CCNC(=O)c1noc(-c2cc(C(C)C)c(O)cc2O)c1-c1ccc(CN2CCOCC2)cc1 [Luminespib] (partner 0.01 µM)
**Result** TRUE

**Query** For this compound, is relative viability lower than 0.2? COCC1(CO)C(=O)C2CCN1CC2 (configuration not stated) [PRIMA-1MET] + O=C(CCCCCCC(=O)Nc1ccccc1)NO [Vorinostat] (partner 1 µM)
**Result** FALSE

**Query** Record COCC1(CO)C(=O)C2CCN1CC2 (configuration not stated) [PRIMA-1MET] + Cc1nc(Nc2ncc(C(=O)Nc3c(C)cccc3Cl)s2)cc(N2CCN(CCO)CC2)n1 [Dasatinib] (partner 0.075 µM) : is its relative viability strictly below 0.2?
**Result** TRUE

**Query** Is 0.2 strictly greater than the compound's reported relative viability? compound: COCC1(CO)C(=O)C2CCN1CC2 (configuration not stated) [PRIMA-1MET] + N=C(N)NC(=N)NCCc1ccccc1 [Phenformin] (partner 250 µM)
**Result** TRUE

**Query** Lab note: confirm whether the reported relative viability for this compound is below 0.2, equality not counting. compound: COCC1(CO)C(=O)C2CCN1CC2 (configuration not stated) [PRIMA-1MET] + COc1cccc2cc(-c3nc([C@H]4CC[C@H](C(=O)O)CC4)n4ncnc(N)c34)[nH]c12 [OSI-027] (partner 0.5 µM)
**Result** TRUE

**Query** Dear colleague, could you confirm whether relative viability of COCC1(CO)C(=O)C2CCN1CC2 (configuration not stated) [PRIMA-1MET] + CC(=O)c1c(C)c2cnc(Nc3ccc(N4CCNCC4)cn3)nc2n(C2CCCC2)c1=O [Palbociclib] (partner 0.5 µM) falls below 0.2? Thanks.
**Result** FALSE

Data credit: the supplement of paper PMC10307832
